Test system: HCT-116
Assay: Antiproliferative activity against human HCT-116 cells assessed as reduction in cell viability incubated for 72 hrs by MTT assay
Format: functional, cell-based
Conditions: HCT-116, 72 h
pIC50: −log10 of the molar value.
Label label 1 when pIC50 is at or above 5; otherwise label label 0.

Reference set (2 entries):
compound	tested_system	discrete_label
COc1cc(NC(C)CCCNC(=O)NCc2nccc3c2[nH]c2ccccc23)c2ncccc2c1 (centres undefined)	HCT-116	label 1
COc1cc(NC(C)CCCn2cc(COc3ccc4[nH]c5c(C)nccc5c4c3)nn2)c2ncccc2c1 (centres undefined)	HCT-116	label 0

Now take the following compound into account.
Enquiry: In plain terms: is recorded pIC50 at least 5 for COc1cc(NC(C)CCCn2cc(-c3cc4c([nH]c5ccccc54)c(C)n3)nn2)c2ncccc2c1 (centres undefined) ?
Return: label 0

---

Test system: HCT-116
Assay: Antiproliferative activity against human HCT-116 cells assessed as reduction in cell viability incubated for 72 hrs by MTT assay
Format: functional, cell-based
Settings: HCT-116, 72 h
Please go through the items and note down their IC50.

compound	IC50
COc1cc(NC(C)CCCn2cc(Cn3c4cc(OC)ccc4c4ccnc(C)c43)nn2)c2ncccc2c1 (stereo not given)	23.2 µM
COc1cc(NC(C)CCCn2cc(COc3ccc4[nH]c5c(C)nccc5c4c3)nn2)c2ncccc2c1-c1c(OC)cc(NC(C)CCCn2cc(COc3ccc4[nH]c5c(C)nccc5c4c3)nn2)c2ncccc12 (stereo not given)	> 50 µM

Each of the following entries comes with a recorded value; kindly state IC50 for each.
1. COc1cc(NC(C)CCCN)c2ncccc2c1 (stereo not given) [PRIMAQUINE]
2. O=c1[nH]cc(F)c(=O)[nH]1 [FLUOROURACIL]
3. COc1cc(NC(C)CCCNC(=O)NCc2cc3c([nH]c4ccccc43)c(C)n2)c2ncccc2c1 (stereo not given)

Return:
["20.8 µM", "14.4 µM", "27.2 µM"]

---

Tested on: Plasmodium falciparum
Test: Resistance index, ratio of IC50 for antiplasmodial activity against erythrocytic stage of chloroquine-resistant Plasmodium falciparum Dd2 to IC50 for antiplasmodial activity against erythrocytic stage of chloroquine-sensitive Plasmodium falciparum 3D7
Type: functional
Please go through the items and note down their Ratio IC50.
Answers are plain numbers.

compound	Ratio IC50
COc1cc(NC(C)CCCn2cc(COc3ccc4[nH]c5c(C)nccc5c4c3)nn2)c2ncccc2c1 (centres undefined)	2.11
COc1cc(NC(C)CCCNC(=O)NCc2nccc3c2[nH]c2ccccc23)c2ncccc2c1 (centres undefined)	1.31
COc1cc(NC(C)CCCNC(=O)NCCOc2ccc3[nH]c4c(C)nccc4c3c2)c2ncccc2c1 (centres undefined)	0.83
COc1cc(NC(C)CCCn2cc(Cn3c4cc(OC)ccc4c4ccnc(C)c43)nn2)c2ncccc2c1 (centres undefined)	1.73
COc1cc(NC(C)CCCN)c2ncccc2c1 (centres undefined)	1.12
COc1cc(NC(C)CCCNC(=O)NCCOc2ccc3c(c2)[nH]c2c(C)nccc23)c2ncccc2c1 (centres undefined)	1.2
COc1cc(NC(C)CCCNC(=O)NCCn2c3cc(OC)ccc3c3ccnc(C)c32)c2ncccc2c1 (centres undefined)	1.57

Kindly note the recorded Ratio IC50 for COc1cc(NC(C)CCCNC(=O)NCc2cc3c([nH]c4ccccc43)c(C)n2)c2ncccc2c1 (centres undefined) , which is 0.98

Hello, the source for this data is ChEMBL document CHEMBL5550130, in case you need it.
